Target: T1, His6-tagged recombinant human EphA2 protein (human, UniProt P29317 25-534)
T1 construct: also called his-tagged recombinant, human EphA2; human EphA2 with c-terminal His6
T1 sequence (P29317 25-534 limits assumed): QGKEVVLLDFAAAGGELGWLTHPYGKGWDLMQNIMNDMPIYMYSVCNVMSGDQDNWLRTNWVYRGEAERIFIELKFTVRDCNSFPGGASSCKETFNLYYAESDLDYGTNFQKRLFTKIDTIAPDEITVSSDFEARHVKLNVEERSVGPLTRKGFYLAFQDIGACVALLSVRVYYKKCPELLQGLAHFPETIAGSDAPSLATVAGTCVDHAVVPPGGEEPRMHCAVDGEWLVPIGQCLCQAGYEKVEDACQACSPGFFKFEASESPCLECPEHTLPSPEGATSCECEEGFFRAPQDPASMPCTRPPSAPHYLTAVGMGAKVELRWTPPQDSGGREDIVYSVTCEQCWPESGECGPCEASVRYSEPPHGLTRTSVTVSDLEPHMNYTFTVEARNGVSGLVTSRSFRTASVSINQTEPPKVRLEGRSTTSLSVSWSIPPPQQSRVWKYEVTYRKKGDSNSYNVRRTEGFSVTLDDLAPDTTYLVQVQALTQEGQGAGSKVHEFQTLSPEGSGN
Assay: BLI (Octet Red 96); His6-EphA2 on anti-His sensors; slope of association curve of scFv-linked liposomes at 0.025 mM phospholipid; TS1C printed as 100
Text: A nucleic acid encoding human EphA2 with c-terminal His6 appended was cloned into expression vector pCEP4 (Invitrogen® # V044-50) and transiently expressed in FreeStyle™ 293 cells (Invitrogen® #K900001) following polyethylenenimine transfection. The His6-tagged recombinant human EphA2 protein was purified from the cell culture medium using Ni-NTA Sepharose™ resin (Quiagen®, USA). […]
Quantity Measured: percent scFv-conjugated-liposome EphA2 binding on-rate (%)
Dear colleague, please return just the value in %, with no unit written.

Worked cases, percent scFv-conjugated-liposome EphA2 binding on-rate given:
binder="scFv-19C (scFv) scFv: QVQLVQSGGGLVQPGGSLRLSCAASGFTFSSYAMHWVRQAPGKGLEWVSVISPPGHNTYYADSVKGRFTISRDNSKNTLYLQMNSLRAEDTAVYYCARASVGATGPFDIWGQGTLVTVSSASTGGGGSGGGGSGGGGSGGGGSSSELTQPPSVSVAPGQTVTITCQGDSLRSYYASWYQQKPGTAPKLLIYGENNRPSGVPDRFSGSSSGTSASLTITGAQAEDEADYYCNSRDSSGTHLTVFGGGTKLTVLGGGSGGC" value_observed=129
binder="scFv-4C (scFv, also called clone 4) scFv: QVQLVQSGGGLVQPGGSLRLSCAASGFTFSSYAMHWVRQAPGKGLEWVTVISPHGRNKYYADSVKGRFTISRDNSKNTLYLQMNSLRAEDTAVYYCARASVGATGPFDIWGQGTLVTVSSASTGGGGSGGGGSGGGGSGGGGSSSELTQPPSVSVAPGQTVTITCQGDSLRSYYASWYQQKPGTAPKLLIYGENNRPSGVPDRFSGSSSGTSASLTITGAQAEDEADYYCNSRDSSGTHLTVFGGGTKLTVLGGGSGGC" value_observed=118

Next up:
[ask] Using the record for scFv-9C (scFv, also called clone 9) scFv: QVQLVQSGGGLVQPGGSLRLSCAASGFTFSSYAMHWVRQAPGKGLEWVTVISPNGHNTYYADSVKGRFTISRDNSKNTLYLQMNSLRAEDTAVYYCARASVGATGPFDIWGQGTLVTVSSASTGGGGSGGGGSGGGGSGGGGSSSELTQPPSVSVAPGQTVTITCQGDSLRSYYASWYQQKPGTAPKLLIYGENNRPSGVPDRFSGSSSGTSASLTITGAQAEDEADYYCNSRDSSGTHLTVFGGGTKLTVLGGGSGGC , state its measured percent scFv-conjugated-liposome EphA2 binding on-rate.
[reply] 118
